- tested target: hemagglutinin of H5N1 clade 2.2 strain WS/Mong/244/05 (influenza A virus WS/Mong/244/05 (H5N1))
- protocol details: cell-based or functional assay
measurement type: IC50, neutralisation of retroviral pseudotypes (µg/mL)
Numbers only, in µg/mL.

What does the data say about its IC50, neutralisation of retroviral pseudotypes? Entry: FLA3.14 (antibody, V domains shown) VH: EVQLVQSGAEVKKPGESLKISCQASGYSFTSRWIGWVRQMPGKGLEWVGFIYPSDSDVRYSPSFRGQVTISADKSISTAYLQWSSLKASDTAMYFCARLGGNKDYGDYLWYFDLWGRGALVTVSS VL: EIVMTQSPDTLSVSPGERATLSCRASQSVNRRLAWYQQKPGQAPRLLIHDASTRATGIPARFSGSGSGTEFTLTISSLQSEDFAVYYCQQYDNWLSFGQGTRLEIK
0.067
